Consider the following molecules; for each one, report its Emax.
- experimental-system: hNurr1_RXRαFL (NURR-1/RXRα heterodimer) (Homo sapiens, UniProt P19793)
- Sequence (P19793 whole entry, the tested form may be a part): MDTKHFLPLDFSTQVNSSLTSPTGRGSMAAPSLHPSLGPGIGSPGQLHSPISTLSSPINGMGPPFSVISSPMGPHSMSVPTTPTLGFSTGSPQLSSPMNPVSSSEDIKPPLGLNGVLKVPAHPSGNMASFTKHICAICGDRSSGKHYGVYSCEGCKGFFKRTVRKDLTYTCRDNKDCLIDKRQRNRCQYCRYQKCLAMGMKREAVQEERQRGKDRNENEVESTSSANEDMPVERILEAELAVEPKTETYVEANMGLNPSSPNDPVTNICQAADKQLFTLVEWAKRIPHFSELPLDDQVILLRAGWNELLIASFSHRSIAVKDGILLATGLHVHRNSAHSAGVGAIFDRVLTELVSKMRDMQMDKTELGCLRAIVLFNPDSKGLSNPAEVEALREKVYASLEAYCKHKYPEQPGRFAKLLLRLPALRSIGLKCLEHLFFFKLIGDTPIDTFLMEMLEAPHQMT
- Sequence (P43354 whole entry, further chain, the tested form may be a part): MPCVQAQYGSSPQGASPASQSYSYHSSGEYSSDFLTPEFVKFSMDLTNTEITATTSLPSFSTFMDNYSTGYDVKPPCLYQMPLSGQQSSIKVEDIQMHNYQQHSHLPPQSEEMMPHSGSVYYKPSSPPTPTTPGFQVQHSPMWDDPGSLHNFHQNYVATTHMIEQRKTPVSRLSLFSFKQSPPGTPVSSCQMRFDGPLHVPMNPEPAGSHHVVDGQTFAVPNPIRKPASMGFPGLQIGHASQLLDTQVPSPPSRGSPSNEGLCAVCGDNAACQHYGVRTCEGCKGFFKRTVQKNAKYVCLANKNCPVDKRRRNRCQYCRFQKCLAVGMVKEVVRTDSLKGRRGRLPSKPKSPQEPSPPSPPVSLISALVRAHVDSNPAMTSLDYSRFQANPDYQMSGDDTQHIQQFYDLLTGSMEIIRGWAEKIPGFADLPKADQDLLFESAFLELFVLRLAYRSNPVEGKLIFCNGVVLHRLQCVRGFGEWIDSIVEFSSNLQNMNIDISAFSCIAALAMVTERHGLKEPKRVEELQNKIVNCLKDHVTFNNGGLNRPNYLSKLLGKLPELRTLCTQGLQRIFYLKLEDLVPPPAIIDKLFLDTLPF
- test-protocol: Transactivation test (luciferase reporter) in Cos-7 cells co-transfected with NURR-1-Gal4 and RXRα
- Type: cell-based
- reported-conditions: percentage efficacy relative to the reference XCT0135908 at 2×10^−5 M (=100%), read-out: hNurr1_RXRαFL Eff (%)

Record excerpt, results attached:
molecule	experimental-system	measured-property	result
CC(C)c1ccc(S(=O)(=O)n2c(Cc3ccc(C(=O)O)cc3)cc3cc(Cl)ncc32)cc1	hNurr1_RXRαFL (NURR-1/RXRα heterodimer) (Homo sapiens, UniProt P19793)	Emax	42%
CCN(CC)C(=O)c1ccc(C(F)c2cc3nc(C(F)(F)F)ccc3n2S(=O)(=O)c2cccc(C(C)(C)C)c2)s1 (centres unmarked)	hNurr1_RXRαFL (NURR-1/RXRα heterodimer) (Homo sapiens, UniProt P19793)	Emax	92%

Dear reader, for each entry below, please note its Emax.
1. CC(C)(C)c1cccc(S(=O)(=O)n2c(Cc3cccc(C(=O)O)c3)cc3cc(C(F)(F)F)ncc32)c1
2. CC(C)(C)c1cccc(S(=O)(=O)n2c(Cc3nc(C(=O)O)cs3)cc3nc(C(F)(F)F)ccc32)c1
3. CC(C)(C)c1cccc(S(=O)(=O)n2c(Cc3ccc(C(=O)O)cc3)cc3cc(C(F)(F)F)cnc32)c1
4. CC(C)(C)c1cccc(S(=O)(=O)n2c(Cc3ccc(C(=O)O)s3)cc3nc(C(F)(F)F)ccc32)c1

["70%", "103%", "66%", "67%"]

---

- experimental-system: hNurr1_RXRαFL (NURR-1/RXRα heterodimer) (Homo sapiens)
- test-protocol: Transactivation test (luciferase reporter) in Cos-7 cells co-transfected with NURR-1-Gal4 and RXRα
- Assay type: cell-based
- reported-conditions: percentage efficacy relative to the reference XCT0135908 at 2×10^−5 M (=100%), read-out: hNurr1_RXRαFL Eff (%)
measured-property: Emax (%)
Give bare numbers, in %.

entry-smiles	experimental-system	Emax / %
CC(C)(C)c1cccc(S(=O)(=O)n2c(Cc3ccc(C(=O)NS(C)(=O)=O)cc3)cc3nc(C(F)(F)F)ccc32)c1	hNurr1_RXRαFL (NURR-1/RXRα heterodimer) (Homo sapiens)	51
CC(C)(C)c1cccc(S(=O)(=O)n2c(Cc3ccc(C(=O)O)cc3)cc3nc(C(F)(F)F)ccc32)c1	hNurr1_RXRαFL (NURR-1/RXRα heterodimer) (Homo sapiens)	92
CC(C)c1ccc(S(=O)(=O)n2c(Cc3ccc(C(=O)O)cc3)cc3cc(C(F)(F)F)ncc32)cc1	hNurr1_RXRαFL (NURR-1/RXRα heterodimer) (Homo sapiens)	64

Now for a further molecule.
# get_value(readout= Emax, system= hNurr1_RXRαFL (NURR-1/RXRα heterodimer) (Homo sapiens)) for CN1CCOc2ccc(S(=O)(=O)n3c(Cc4ccc(C(=O)O)cc4)cc4cc(C(F)(F)F)ncc43)cc21 81

---

- experimental-system: hNurr1_RXRγFL (NURR-1/RXRγ heterodimer) (Homo sapiens, UniProt P48443)
- Sequence (P48443 whole entry, the tested form may be a part): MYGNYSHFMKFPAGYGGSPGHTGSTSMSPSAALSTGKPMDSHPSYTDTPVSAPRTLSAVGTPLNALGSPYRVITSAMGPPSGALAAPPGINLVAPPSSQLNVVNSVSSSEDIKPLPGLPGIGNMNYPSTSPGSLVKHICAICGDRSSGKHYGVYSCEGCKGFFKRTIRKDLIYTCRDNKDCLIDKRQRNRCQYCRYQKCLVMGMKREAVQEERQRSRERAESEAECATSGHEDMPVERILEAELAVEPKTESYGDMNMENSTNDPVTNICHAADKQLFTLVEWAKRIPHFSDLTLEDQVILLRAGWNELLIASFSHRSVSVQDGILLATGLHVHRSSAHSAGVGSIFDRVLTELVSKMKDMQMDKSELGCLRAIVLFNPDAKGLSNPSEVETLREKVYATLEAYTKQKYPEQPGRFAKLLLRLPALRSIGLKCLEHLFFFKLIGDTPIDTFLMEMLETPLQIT
- Sequence (P43354 whole entry partner, the tested form may be a part): as the sequence (P43354 whole entry, further chain, the tested form may be a part) above
- test-protocol: Transactivation test (luciferase reporter) in Cos-7 cells co-transfected with NURR-1-Gal4 and RXRγ
- Type: cell-based
- reported-conditions: percentage efficacy relative to the reference XCT0135908 at 2×10^−5 M (=100%), read-out: hNurr1_RXRγFL Eff (%)
- Protocol: The ability of the compounds according to the invention to behave as activators of the heterodimers formed by the NURR-1 nuclear receptor and the RXR nuclear receptors was measured, by means of an in vitro test. A transactivation test was used as a primary screening test. […] After 24 hours, the culture medium was changed. […] After incubating overnight, the luciferase expression was measured after addition of “SteadyGlo” according to the manufacturer's instructions (Promega). […]
Please go through the items and note down their Emax.
Numbers only, in %.

entry-smiles	Emax [%]
CC(C)c1ccc(S(=O)(=O)n2c(Cc3ccc(C(=O)O)cc3)cc3nc(C(F)(F)F)ccc32)cc1	53
CC(C)c1cccc(S(=O)(=O)n2c(Cc3ccc(C(=O)O)cc3)cc3cc(C(F)(F)F)cnc32)c1	52
CC(C)(C)c1cccc(S(=O)(=O)n2c(Cc3ccc(C(=O)O)cc3)cc3cc(C(F)(F)F)cnc32)c1	51
CN1CCOc2ccc(S(=O)(=O)n3c(Cc4ccc(C(=O)O)cc4)cc4cc(C(F)(F)F)ncc43)cc21	75
CC(C)c1ccc(S(=O)(=O)n2c(Cc3ccc(C(=O)O)cc3)cc3cc(C(F)(F)F)ncc32)cc1	54
CC(C)(C)c1cccc(S(=O)(=O)n2c(Cc3ccc(C(=O)O)s3)cc3nc(C(F)(F)F)ccc32)c1	64

Quick one: Emax of CC(C)c1ccc(S(=O)(=O)n2c(Cc3ccc(C(=O)O)cc3)cc3cc(Cl)ncc32)cc1 ? 27

Values from patent US8546385B2
